STUDY_TARGET: Bromodomain adjacent to zinc finger domain protein 2B (Homo sapiens) (UniProt Q9UIF8)
Sequence (Q9UIF8 whole entry, looked up, the tested form may be a part): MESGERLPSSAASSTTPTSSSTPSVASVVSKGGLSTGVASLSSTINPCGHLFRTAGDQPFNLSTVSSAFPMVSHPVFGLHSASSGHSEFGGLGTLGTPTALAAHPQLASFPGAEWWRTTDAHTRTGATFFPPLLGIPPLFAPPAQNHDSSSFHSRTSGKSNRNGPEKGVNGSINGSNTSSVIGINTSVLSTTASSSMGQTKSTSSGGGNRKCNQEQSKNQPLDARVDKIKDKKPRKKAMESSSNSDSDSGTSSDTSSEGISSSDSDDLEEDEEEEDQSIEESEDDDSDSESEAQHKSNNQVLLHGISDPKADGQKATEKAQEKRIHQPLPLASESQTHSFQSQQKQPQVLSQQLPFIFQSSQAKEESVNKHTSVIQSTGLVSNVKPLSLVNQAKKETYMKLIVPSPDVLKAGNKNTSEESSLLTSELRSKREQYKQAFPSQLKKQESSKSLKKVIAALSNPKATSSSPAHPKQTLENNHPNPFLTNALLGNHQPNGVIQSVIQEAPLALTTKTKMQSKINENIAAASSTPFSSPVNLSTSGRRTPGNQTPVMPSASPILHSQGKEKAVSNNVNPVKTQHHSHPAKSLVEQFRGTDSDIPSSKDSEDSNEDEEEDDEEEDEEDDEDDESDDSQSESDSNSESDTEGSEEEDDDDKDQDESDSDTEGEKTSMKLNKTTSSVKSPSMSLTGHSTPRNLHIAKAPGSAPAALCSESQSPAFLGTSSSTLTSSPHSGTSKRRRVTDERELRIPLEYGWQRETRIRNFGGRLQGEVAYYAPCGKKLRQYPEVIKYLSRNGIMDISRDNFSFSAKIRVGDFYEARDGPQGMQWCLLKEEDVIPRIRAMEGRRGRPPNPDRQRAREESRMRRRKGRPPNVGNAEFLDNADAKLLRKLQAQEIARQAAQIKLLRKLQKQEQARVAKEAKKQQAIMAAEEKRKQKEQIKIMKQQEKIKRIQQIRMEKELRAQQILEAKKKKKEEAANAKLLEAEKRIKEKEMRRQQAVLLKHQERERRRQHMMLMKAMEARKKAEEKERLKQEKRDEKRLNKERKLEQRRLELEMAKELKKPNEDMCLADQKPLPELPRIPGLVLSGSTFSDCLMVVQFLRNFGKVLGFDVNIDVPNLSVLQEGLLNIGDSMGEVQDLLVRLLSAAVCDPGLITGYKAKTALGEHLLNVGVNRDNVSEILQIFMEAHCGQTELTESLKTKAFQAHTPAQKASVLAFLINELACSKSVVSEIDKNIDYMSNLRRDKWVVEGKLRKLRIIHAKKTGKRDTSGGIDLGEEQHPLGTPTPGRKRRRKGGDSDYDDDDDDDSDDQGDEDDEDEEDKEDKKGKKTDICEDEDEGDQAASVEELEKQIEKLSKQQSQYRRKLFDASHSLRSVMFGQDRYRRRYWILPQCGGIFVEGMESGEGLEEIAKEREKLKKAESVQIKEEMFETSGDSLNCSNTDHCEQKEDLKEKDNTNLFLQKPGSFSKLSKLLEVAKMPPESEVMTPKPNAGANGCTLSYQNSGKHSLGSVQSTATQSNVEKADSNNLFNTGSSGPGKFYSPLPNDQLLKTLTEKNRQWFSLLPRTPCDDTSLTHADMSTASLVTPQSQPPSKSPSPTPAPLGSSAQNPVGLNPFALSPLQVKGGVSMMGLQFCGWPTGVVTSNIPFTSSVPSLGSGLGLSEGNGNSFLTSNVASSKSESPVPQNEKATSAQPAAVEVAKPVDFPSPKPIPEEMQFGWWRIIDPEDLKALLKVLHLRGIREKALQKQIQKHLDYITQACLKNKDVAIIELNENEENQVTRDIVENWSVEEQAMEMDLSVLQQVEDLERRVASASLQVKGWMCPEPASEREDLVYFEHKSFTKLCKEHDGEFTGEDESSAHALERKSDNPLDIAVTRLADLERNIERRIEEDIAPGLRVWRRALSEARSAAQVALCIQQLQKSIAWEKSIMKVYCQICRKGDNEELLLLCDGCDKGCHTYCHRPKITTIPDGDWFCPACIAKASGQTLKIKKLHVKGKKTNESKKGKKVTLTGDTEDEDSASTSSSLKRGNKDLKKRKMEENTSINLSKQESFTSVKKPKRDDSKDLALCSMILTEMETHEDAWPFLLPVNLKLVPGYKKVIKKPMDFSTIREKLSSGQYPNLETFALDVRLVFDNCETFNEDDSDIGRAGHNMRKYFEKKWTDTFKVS
ASSAY_DETAILS: qHTS Assay for Inhibitors of BAZ2B; note: nearly all actives have a fitted effect of over 60% in size
CONDITION: AlphaScreen BAZ2B-H3K14Ac peptide displacement; series mostly up to 114 µM
In all, about 360,000 compounds went through this assay and about 16,000 (4.4%) were called active. Inconclusive results (about 9%) are left out. Calls come from the whole dose curve; as a rule, active = well fitted inhibition curve with a large enough effect; inconclusive = small, poorly fitted or top-dose-only effect; inactive = no such curve, though single readings can be large or run the other way. Shown is part of a subset that was picked to be rich in actives.
Hello, when you answer, please use one of the following outcomes: y for active, n for inactive

Worked cases, answers included:
Fc1ccc(-c2nn(-c3ccccc3Cl)c3c2cnc2ccccc23)cc1; n
CCOc1cccc(-c2nn3c(-c4ccccn4)nnc3s2)c1; y
COC(=O)c1sccc1S(=O)(=O)N(CC(=O)Nc1ccc(C)c(F)c1)c1ccc(C)c(C)c1; n
COc1ccc(OC)c(CNC(=O)Cn2nc(C)c3c(C)n(-c4ccccc4)nc3c2=O)c1; n
CCOc1cc(C(=O)Nc2nnc3n2CCS3)cc(OCC)c1OCC; n

# lookup: test call for `COc1ccc(C(=O)c2c(C)c(CCC#N)n3ccccc23)c(OC)c1`
n

Name the outcome recorded for `Cc1ccc(OCC(=O)Nc2ccc(Cl)c(-c3nc4ccccc4[nH]3)c2)cc1C` in the assay.
n

What outcome does the record of this test show for `CCOc1cc(/C=N/NC(=O)c2cc(-c3ccccc3)nc3ccccc23)ccc1O` ?
n

Kindly provide the recorded test outcome for the following compound: COc1ccccc1N1CCN(C2C(=O)c3ccccc3N2C(C)=O)CC1 (configuration not stated)
n

For this compound, state the assay outcome: `Cc1ccc(-c2nc(CS(=O)(=O)CC(=O)NCc3ccccc3Cl)c(C)o2)cc1`
n
